- measured.target: Free fatty acid receptor 1 (Homo sapiens, UniProt O14842)
- Sequence (O14842 whole entry, the tested form may be a part): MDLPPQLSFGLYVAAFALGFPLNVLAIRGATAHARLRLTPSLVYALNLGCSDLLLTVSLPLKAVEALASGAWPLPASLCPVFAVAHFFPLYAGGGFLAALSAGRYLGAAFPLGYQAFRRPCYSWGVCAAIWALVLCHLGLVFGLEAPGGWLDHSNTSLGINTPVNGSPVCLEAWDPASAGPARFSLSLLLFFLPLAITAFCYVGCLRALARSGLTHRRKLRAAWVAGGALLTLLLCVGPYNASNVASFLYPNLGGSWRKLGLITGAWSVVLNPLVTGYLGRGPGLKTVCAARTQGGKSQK
- assay.explanation: Transactivation of human GPR40 expressed in HEK293 cells after 24 hrs by Elk-Gal4 luciferase reporter assay
quantity.name: EC50 (nM)

(A) O=C(O)C[C@@H]1COc2cc(OCc3cccc(-c4ccc5c(c4)CCN(CCc4ccccc4)C5)c3)ccc21
(B) O=C(O)C[C@@H]1COc2cc(OCc3cccc(-c4cccc5c4CCN(C(=O)c4ccccc4)C5)c3)ccc21
(C) Cl.O=C(O)C[C@@H]1COc2cc(OCc3cccc(-c4ccc5c(c4)CN(Cc4ccccc4)CC5)c3)ccc21
Place the item with the largest EC50 first, then continue in falling order, using the list above. List the labels in the requested order.
A, B, C
(A: 4000 nM, B: 2200 nM, C: 800 nM)
